A collection of sequences and their measured 3' UTR reporter interaction score
System: BRCA2
test.summary: 3' UTR reporter interaction score (median-centred robust z-score of log2 firefly/Renilla activity); higher = less repression of the 3' UTR reporter
particulars: HEK293T; 48 h
Please reply with the value in numeric form only.

Worked set:
- macromolecule.sequence: "UCGUACCGUGAGUAAUAAUGC"
  3' UTR reporter interaction score: 0.63
- macromolecule.sequence: "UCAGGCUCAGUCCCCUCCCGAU"
  3' UTR reporter interaction score: 0.841
- macromolecule.sequence: "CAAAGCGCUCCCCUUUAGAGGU"
  3' UTR reporter interaction score: -0.715
- macromolecule.sequence: "CACACACUGCAAUUACUUUUGC"
  3' UTR reporter interaction score: 1.28
- macromolecule.sequence: "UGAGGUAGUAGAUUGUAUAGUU"
  3' UTR reporter interaction score: 0.246
- macromolecule.sequence: "UAGGUAGUUUCCUGUUGUUGG"
  3' UTR reporter interaction score: -0.449
- macromolecule.sequence: "CAAGAACCUCAGUUGCUUUUGU"
  3' UTR reporter interaction score: -0.995

Could you now consider this next sequence?
(Q) For the sequence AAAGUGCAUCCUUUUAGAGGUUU , report 3' UTR reporter interaction score.
(A) -0.233

---

A collection of sequences and their measured 3' UTR reporter interaction score
Tested on: MYCN
test.summary: 3' UTR reporter interaction score (median-centred robust z-score of log2 firefly/Renilla activity); higher = less repression of the 3' UTR reporter
particulars: HEK293T; 48 h
Please reply with the value in numeric form only.

Worked set:
- macromolecule.sequence: "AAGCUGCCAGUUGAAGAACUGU"
  meas.value: -0.291
- macromolecule.sequence: "ACUUUAACAUGGAAGUGCUUUCU"
  meas.value: -0.0564
- macromolecule.sequence: "UUAAGGCACGCGGUGAAUGCCA"
  meas.value: 0.541
- macromolecule.sequence: "UGAGGUAGUAGUUUGUACAGU"
  meas.value: -3.87
- macromolecule.sequence: "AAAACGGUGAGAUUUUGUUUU"
  meas.value: 0.148

(Q) For the sequence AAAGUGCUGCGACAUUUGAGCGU , report 3' UTR reporter interaction score.
(A) 0.612

(Q) For the sequence UAGCACCAUUUGAAAUCAGUGUU , report 3' UTR reporter interaction score.
(A) -3.52

(Q) For the sequence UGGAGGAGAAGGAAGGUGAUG , report 3' UTR reporter interaction score.
(A) 0.481

---

System: MYT1L
test.summary: 3' UTR reporter interaction score (median-centred robust z-score of log2 firefly/Renilla activity); higher = less repression of the 3' UTR reporter
particulars: HEK293T; 48 h
# binarize 3' UTR reporter interaction score: threshold 0.2 inclusive, high side true, low side false

Reference set, count: 5
- macromolecule.sequence: "UCAGUGCAUGACAGAACUUGGG"
  class.assignment: "true"
- macromolecule.sequence: "AACAUUCAACCUGUCGGUGAGU"
  class.assignment: "true"
- macromolecule.sequence: "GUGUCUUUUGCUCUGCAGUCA"
  class.assignment: "true"
- macromolecule.sequence: "AUCGGGAAUGUCGUGUCCGCC"
  class.assignment: "false"
- macromolecule.sequence: "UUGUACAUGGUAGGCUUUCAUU"
  class.assignment: "false"

(Q) Is 3' UTR reporter interaction score at least 0.2? Consider UUUCCUAUGCAUAUACUUCUUU
(A) true

(Q) Is 3' UTR reporter interaction score at least 0.2? Consider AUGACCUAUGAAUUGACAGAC
(A) true

(Q) Is 3' UTR reporter interaction score at least 0.2? Consider CAAGUCACUAGUGGUUCCGUUUA
(A) false

(Q) Is 3' UTR reporter interaction score at least 0.2? Consider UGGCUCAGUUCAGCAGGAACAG
(A) true

(Q) Is 3' UTR reporter interaction score at least 0.2? Consider UCUAGGCUGGUACUGCUGA
(A) true
